target: thymidylate synthase (Mus musculus, UniProt P07607); construct: Thymidylate synthase may be obtained in partially purified form from L1210 mouse leukaemia cells; endogenous in cells; host or cells: L1210 mouse leukaemia cells; assay: Test (a): in vitro assay, inhibition of thymidylate synthase (partially purified from L1210 mouse leukaemia cells); assay type: biochemical; settings: thymidylate synthase partially purified from L1210 mouse leukaemia cells; read-out: IC50 in test (a)
Sequence (P07607 whole entry): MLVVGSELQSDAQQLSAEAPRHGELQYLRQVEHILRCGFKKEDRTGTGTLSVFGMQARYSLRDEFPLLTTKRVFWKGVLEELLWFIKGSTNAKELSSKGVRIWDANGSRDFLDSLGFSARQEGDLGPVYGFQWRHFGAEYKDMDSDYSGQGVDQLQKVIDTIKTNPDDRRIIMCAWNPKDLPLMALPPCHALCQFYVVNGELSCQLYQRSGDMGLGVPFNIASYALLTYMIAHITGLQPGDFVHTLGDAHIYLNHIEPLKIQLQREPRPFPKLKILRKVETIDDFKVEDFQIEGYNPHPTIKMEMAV
pIC50: −log10 of the molar value.
assay_endpoint: pIC50

C#CCN(c1ccc(C(=O)N[C@@H](CCCS(=O)(=O)c2nnc[nH]2)C(=O)O)cc1)C1CCc2cc3nc(C)[nH]c(=O)c3cc21 (mixture of isomers) [Example 17]    8.80

[a] C#CCN(c1ccc(C(=O)N[C@@H](CCC(=O)N[C@@H](CCc2nnnn2CC(=O)O)C(=O)O)C(=O)O)cc1)C1CCc2cc3nc(C)[nH]c(=O)c3cc21 (mixture of isomers) [Example 15]
[b] C#CCN(c1ccc(C(=O)N[C@@H](CCC(=O)N[C@H](C)C(=O)O)C(=O)O)cc1)C1CCc2cc3nc(C)nc(O)c3cc21 (mixture of isomers) [Example 19]
Lowest pIC50? choose a or b Answer by stating the label of the chosen item.
b

---

target: thymidylate synthase (Mus musculus); construct: Thymidylate synthase may be obtained in partially purified form from L1210 mouse leukaemia cells; endogenous in cells; host or cells: L1210 mouse leukaemia cells; test: Test (a): in vitro assay, inhibition of thymidylate synthase (partially purified from L1210 mouse leukaemia cells); format: biochemical
assay_endpoint: pIC50
Schema: pIC50 number; meaning minus log10 of the concentration expressed in molar units.

Report measured pIC50 on thymidylate synthase (Mus musculus); entry: Cc1nc2cc3c(cc2c(=O)[nH]1)[C@H](N(C)c1ccc(C(=O)N[C@@H](CCC(=O)N[C@@H](C(=O)O)c2ccc(CC(=O)O)cc2)C(=O)O)c(F)c1)CC3 (mixture of isomers)
8.40

Report measured pIC50 on thymidylate synthase (Mus musculus); entry: Cc1nc2cc3c(cc2c(=O)[nH]1)C(N(C)c1ccc(C(=O)N[C@@H](CCc2nnn(CC(=O)O)n2)C(=O)O)c(F)c1)CC3 (mixture of isomers)
8.06

Report measured pIC50 on thymidylate synthase (Mus musculus); entry: Cc1nc2cc3c(cc2c(=O)[nH]1)C(N(C)c1ccc(C(=O)N[C@H](C(=O)O)c2ccc(CC(=O)O)cc2)c(F)c1)CC3 (mixture of isomers)
8.12

Report measured pIC50 on thymidylate synthase (Mus musculus); entry: C#CCN(c1ccc(C(=O)N[C@@H](CCC(=O)N(C)[C@@H](CCC(=O)O)C(=O)O)C(=O)O)cc1)C1CCc2cc3nc(C)[nH]c(=O)c3cc21 (mixture of isomers)
8.85

---

Biological target: thymidylate synthase (Mus musculus, UniProt P07607)
Construct: Thymidylate synthase may be obtained in partially purified form from L1210 mouse leukaemia cells; endogenous in cells; host or cells: L1210 mouse leukaemia cells
Assay: Test (a): in vitro assay, inhibition of thymidylate synthase (partially purified from L1210 mouse leukaemia cells)
Format: biochemical
Source text: (a) An in vitro assay which determines the ability of a test compound to inhibit the enzyme thymidylate synthase.
Each entry below lists one item and its recorded pIC50 value.
Schema: pIC50 number; meaning minus log10 of the concentration expressed in molar units.

Known results for molecules:
C#CCN(c1ccc(C(=O)N[C@@H](CCc2nnnn2CCC(=O)O)C(=O)O)cc1)C1CCc2cc3nc(C)[nH]c(=O)c3cc21 (mixture of isomers)    8.74
C#CCN(c1ccc(C(=O)N[C@@H](CCc2nnnn2CC(=O)N[C@H](C)C(=O)O)C(=O)O)cc1)C1CCc2cc3nc(C)nc(O)c3cc21 (stereo partly shown)    8.47
C#CCN(c1ccc(C(=O)N[C@@H](CCC(=O)N[C@H](CCC(=O)O)c2nnn[nH]2)C(=O)O)cc1)C1CCc2cc3nc(C)[nH]c(=O)c3cc21 (mixture of isomers)    8.97

Could you now look at the following molecule, please?
Report measured pIC50 on thymidylate synthase (Mus musculus, UniProt P07607); entry: Cc1nc2cc3c(cc2c(=O)[nH]1)C(N(C)c1ccc(C(=O)N[C@@H](CCc2nnnn2CC(=O)O)C(=O)O)c(F)c1)CC3 (mixture of isomers)
7.83
